B1: glmS ribozyme (parent)
chain: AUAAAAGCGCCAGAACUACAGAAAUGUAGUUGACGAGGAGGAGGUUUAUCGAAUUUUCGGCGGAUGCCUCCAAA

Variants of: B1
testProtocol: self-cleavage kobs at 2500 uM GlcN6P; higher = faster cleavage; RNA array
assayContext: with glucosamine-6-phosphate
Fewer inactive variants are shown than the library holds.
Reported values of self-cleavage kobs at 2500 uM GlcN6P for individual entries

>>> reportedmeasurement("AUAAAAGUGCCAGAACUACAGAAAUGUAGUUGGGGUGGAGGAGGUUUAUCGAAUUUUCGGCGGACGCCUCCAAA [C8U A33G C34G A36U U65C]")
"< 1e-05 s⁻¹"

# lookup: self-cleavage kobs at 2500 uM GlcN6P of AUAAAAGCGCCAGGACUACAGAAAUGUAGUUGACGAGGAGGAGGUUUAUCGAGUUUUCGGCGGAUACCUCCAAA [A14G A53G G66A]
0.0162 s⁻¹

Another variant to look at: AUAAAAGCGUCAGAACUACAGAAAUGUAUUUGGCGAGGCGGAGGUUUAUCGAAUGUUCGGCGGAUGCCUGCAAA [C10U G29U A33G A39C U55G C70G]
< 1e-05 s⁻¹
